test system: Nitrobacter spp.; assay: Nitrite nitrogen in ammonium amended soil incubated at 25° C.; conditions: 0.25 ppm; week 1; soil 25° C.; 200 ppm N
Where a name gives a salt, the structure may show the parent alone.

>  <compound>
CC[C@@]1([C@@H]2O[C@@H]([C@H]3O[C@@](O)(CO)[C@H](C)C[C@@H]3C)C[C@@H]2C)CC[C@H]([C@]2(C)CC[C@]3(C[C@H](O)[C@@H](C)[C@@H]([C@@H](C)[C@@H](OC)[C@H](C)C(=O)O)O3)O2)O1 [Monensin sodium salt, Monensin]

>  <target>
Nitrobacter spp.

>  <Concentration of nitrite nitrogen, ppm>
3

$$$$
>  <compound>
CC[C@@H](C(=O)[C@@H](C)[C@@H](O)[C@H](C)[C@@H]1O[C@@H]([C@@H](CC)C(=O)O)CC[C@@H]1C)[C@H]1O[C@]2(C=C[C@@H](O)[C@]3(CC[C@@](C)([C@H]4CC[C@](O)(CC)[C@H](C)O4)O3)O2)[C@H](C)C[C@@H]1C [Salinomycin monosodium salt, Salinomycin]

>  <target>
Nitrobacter spp.

>  <Concentration of nitrite nitrogen, ppm>
5

$$$$
>  <compound>
CO[C@@H]1[C@@H](OC)[C@H](C)[C@@](O)(CC(=O)O)O[C@H]1[C@H](C)[C@H]1O[C@@]2(CC[C@@](C)([C@H]3CC[C@@](C)([C@@H]4O[C@@H]([C@H]5O[C@](C)(O)[C@H](C)C[C@@H]5C)C[C@@H]4O[C@@H]4C[C@H](OC)[C@@H](OC)[C@H](C)O4)O3)O2)C[C@H](O)[C@H]1C [Maduramicin monoammonium salt, Maduramicin]

>  <target>
Nitrobacter spp.

>  <Concentration of nitrite nitrogen, ppm>
2

$$$$

* * *

test system: Nitrosomonas spp.; experiment: Nitrification of ammonium in soil incubated at 25° C. (ammonium recovery, nitrate accumulation); conditions: 0.50 ppm; week 7; soil 25° C.; 200 ppm N
Where a name gives a salt, the structure may show the parent alone.
Reported Concentration of nitrate nitrogen by item:

>  <molecule>
Clc1cccc(C(Cl)(Cl)Cl)n1 [Nitrapyrin]

>  <Concentration of nitrate nitrogen, PPM>
25

$$$$
>  <molecule>
CC[C@@H](C(=O)[C@@H](C)[C@@H](O)[C@H](C)CCc1ccc(C)c(O)c1C(=O)O)[C@H]1O[C@](CC)([C@H]2CC[C@](O)(CC)[C@H](C)O2)C[C@@H]1C [Lasalocid sodium salt, Lasalocid]

>  <Concentration of nitrate nitrogen, PPM>
18

$$$$
>  <molecule>
CC[C@@]1([C@@H]2O[C@@H]([C@H]3O[C@@](O)(CO)[C@H](C)C[C@@H]3C)C[C@@H]2C)CC[C@H]([C@]2(C)CC[C@]3(C[C@H](O)[C@@H](C)[C@@H]([C@@H](C)[C@@H](OC)[C@H](C)C(=O)O)O3)O2)O1 [Monensin sodium salt, Monensin]

>  <Concentration of nitrate nitrogen, PPM>
23

$$$$
>  <molecule>
CC[C@@H](C(=O)[C@@H](C)[C@@H](O)[C@H](C)[C@@H]1O[C@@H]([C@@H](CC)C(=O)O)CC[C@@H]1C)[C@H]1O[C@]2(C=C[C@@H](O)[C@]3(CC[C@@](C)([C@H]4CC[C@](O)(CC)[C@H](C)O4)O3)O2)[C@H](C)C[C@@H]1C [Salinomycin monosodium salt, Salinomycin]

>  <Concentration of nitrate nitrogen, PPM>
18

$$$$
>  <molecule>
CO[C@@H]1[C@@H](OC)[C@H](C)[C@@](O)(CC(=O)O)O[C@H]1[C@H](C)[C@H]1O[C@@]2(CC[C@@](C)([C@H]3CC[C@@](C)([C@@H]4O[C@@H]([C@H]5O[C@](C)(O)[C@H](C)C[C@@H]5C)C[C@@H]4O[C@@H]4C[C@H](OC)[C@@H](OC)[C@H](C)O4)O3)O2)C[C@H](O)[C@H]1C [Maduramicin monoammonium salt, Maduramicin]

>  <Concentration of nitrate nitrogen, PPM>
21

$$$$
